Can you tell me pIC50 for the items I'm about to list?
Target: cdk5/p25 (Homo sapiens, UniProt Q00535)
Sequence (Q00535 whole entry, species assumed): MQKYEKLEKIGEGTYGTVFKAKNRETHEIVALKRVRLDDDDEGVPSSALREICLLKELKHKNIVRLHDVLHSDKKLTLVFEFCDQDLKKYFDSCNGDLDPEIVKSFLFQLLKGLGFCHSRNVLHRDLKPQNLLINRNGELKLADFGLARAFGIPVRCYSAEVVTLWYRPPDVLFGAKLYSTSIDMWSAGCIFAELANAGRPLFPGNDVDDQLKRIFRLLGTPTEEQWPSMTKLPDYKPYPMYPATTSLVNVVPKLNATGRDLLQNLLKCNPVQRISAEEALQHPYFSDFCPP
Sequence (Q15078 99-307 partner limits assumed, species assumed): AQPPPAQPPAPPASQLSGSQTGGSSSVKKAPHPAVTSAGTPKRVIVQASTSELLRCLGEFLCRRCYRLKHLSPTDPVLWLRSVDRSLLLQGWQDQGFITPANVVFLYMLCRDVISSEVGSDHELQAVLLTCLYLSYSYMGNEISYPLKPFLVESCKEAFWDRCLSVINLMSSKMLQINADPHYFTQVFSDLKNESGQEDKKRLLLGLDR
Assay: Inhibitory activity against cdk5/p25 (TPK2), 33P-ATP phosphorylation of Histone H1
Settings: TPK2 = cdk5/p25 (b7); table 4
One number for each entry, as −log10 of the molar value.

Observe how each entry below is paired with its result.
>  <Compound>
CC1CCn2c(nc(-c3ccncc3)cc2=O)N1C[C@@H](O)c1ccccc1 (mixture of isomers) [Table 3 Compound 7]

>  <pIC50>
6.46

$$$$
>  <Compound>
O=c1cc(-c2ccncc2)nc2n1CC(F)(F)CN2C[C@@H](O)c1ccccc1 [Table 1 Compound 5]

>  <pIC50>
7.17

$$$$
>  <Compound>
CC1(C)CN(C[C@@H](O)c2ccccc2)c2nc(-c3ccncc3)c(F)c(=O)n2C1 [Table 1 Compound 12]

>  <pIC50>
6.48

$$$$
>  <Compound>
O=C(CN1CCCn2c1nc(-c1ccncc1)c(Cl)c2=O)c1ccccc1 [Table 1 Compound 39]

>  <pIC50>
7.21

$$$$
>  <Compound>
O=C(CN1CCCn2c1nc(-c1ccncc1)c(F)c2=O)c1cccc(F)c1 [Table 1 Compound 37]

>  <pIC50>
5.34

$$$$
>  <Compound>
O=C(CN1CCCn2c1nc(-c1ccncc1)c(Br)c2=O)c1ccccc1 [Table 1 Compound 40]

>  <pIC50>
7.11

$$$$

Next, consider the following compound.
Quick one: pIC50 for O=c1c(Cl)c(-c2ccncc2)nc2n1CCCN2C[C@@H](O)c1ccccc1 [Table 1 Compound 42] ?
6.81

###

What follows is a record of pIC50 for GSK3β (Homo sapiens, UniProt P49841).
Give bare numbers, as −log10 of the molar value.

>  <Compound>
O=c1c(F)c(-c2ccncc2)nc2n1CCCN2C[C@@H](O)c1ccccc1

>  <Numeric readout>
8.22

$$$$
>  <Compound>
CC1CCn2c(nc(-c3ccncc3)cc2=O)N1C[C@@H](O)c1ccccc1 (mixture of isomers)

>  <Numeric readout>
8.40

$$$$
>  <Compound>
Cc1ccc([C@H](O)CN2c3nc(-c4ccncc4)cc(=O)n3CCC2(C)C)cc1

>  <Numeric readout>
9.00

$$$$

Now consider the entry below.
Looking for the measured pIC50 of CC1(C)CN(C[C@@H](O)c2ccccc2)c2nc(-c3ccncc3)c(F)c(=O)n2C1 , can you help?
7.96

###

Field: IC50. Provide a value for each of the molecules that follow.
Target: cdk5/p25 (Homo sapiens)
Assay: Inhibitory activity against cdk5/p25 (TPK2), 33P-ATP phosphorylation of Histone H1
Settings: TPK2 = cdk5/p25 (b7); table 4

// worked examples, IC50 included
>  <Molecule>
CO[C@H](CN1CCCn2c1nc(-c1ccncc1)c(F)c2=O)c1ccccc1 [Table 1 Compound 45]

>  <Result>
> 1000 nM

$$$$
>  <Molecule>
O=c1c(F)c(-c2ccncc2)nc2n1CCCN2C[C@@H](O)c1ccccc1 [Table 1 Compound 44]

>  <Result>
> 1000 nM

$$$$

Kindly review the next molecule as well.
Data request, read-out IC50, for Cc1ccc([C@H](O)CN2c3nc(-c4ccncc4)cc(=O)n3CCC2(C)C)cc1 [Table 3 Compound 32]
> 1000 nM

// data source = patent US7214682B2
